test: Half life in cynomolgus monkey plasma at 5 mg/kg, po; format: ADME, organism-based, Macaca fascicularis; parameters: dose 5 mg/kg, route oral
Quantity: half-life (h)
Give the number; h is assumed, so skip it.

Identify measured half-life associated with Cc1c(NC(=O)OC[C@@H]2COCCN2)cn2ncnc(Nc3ccc4c(cnn4Cc4cccc(F)c4)c3)c12
5.7

====

Below is a list of entries, each paired with its recorded IC50 value.
biological target: Epidermal growth factor receptor (Homo sapiens); assay: Inhibition of human recombinant HER1 expressed in Sf9 cells by liquid scintillation counting
Sequence (P00533 whole entry): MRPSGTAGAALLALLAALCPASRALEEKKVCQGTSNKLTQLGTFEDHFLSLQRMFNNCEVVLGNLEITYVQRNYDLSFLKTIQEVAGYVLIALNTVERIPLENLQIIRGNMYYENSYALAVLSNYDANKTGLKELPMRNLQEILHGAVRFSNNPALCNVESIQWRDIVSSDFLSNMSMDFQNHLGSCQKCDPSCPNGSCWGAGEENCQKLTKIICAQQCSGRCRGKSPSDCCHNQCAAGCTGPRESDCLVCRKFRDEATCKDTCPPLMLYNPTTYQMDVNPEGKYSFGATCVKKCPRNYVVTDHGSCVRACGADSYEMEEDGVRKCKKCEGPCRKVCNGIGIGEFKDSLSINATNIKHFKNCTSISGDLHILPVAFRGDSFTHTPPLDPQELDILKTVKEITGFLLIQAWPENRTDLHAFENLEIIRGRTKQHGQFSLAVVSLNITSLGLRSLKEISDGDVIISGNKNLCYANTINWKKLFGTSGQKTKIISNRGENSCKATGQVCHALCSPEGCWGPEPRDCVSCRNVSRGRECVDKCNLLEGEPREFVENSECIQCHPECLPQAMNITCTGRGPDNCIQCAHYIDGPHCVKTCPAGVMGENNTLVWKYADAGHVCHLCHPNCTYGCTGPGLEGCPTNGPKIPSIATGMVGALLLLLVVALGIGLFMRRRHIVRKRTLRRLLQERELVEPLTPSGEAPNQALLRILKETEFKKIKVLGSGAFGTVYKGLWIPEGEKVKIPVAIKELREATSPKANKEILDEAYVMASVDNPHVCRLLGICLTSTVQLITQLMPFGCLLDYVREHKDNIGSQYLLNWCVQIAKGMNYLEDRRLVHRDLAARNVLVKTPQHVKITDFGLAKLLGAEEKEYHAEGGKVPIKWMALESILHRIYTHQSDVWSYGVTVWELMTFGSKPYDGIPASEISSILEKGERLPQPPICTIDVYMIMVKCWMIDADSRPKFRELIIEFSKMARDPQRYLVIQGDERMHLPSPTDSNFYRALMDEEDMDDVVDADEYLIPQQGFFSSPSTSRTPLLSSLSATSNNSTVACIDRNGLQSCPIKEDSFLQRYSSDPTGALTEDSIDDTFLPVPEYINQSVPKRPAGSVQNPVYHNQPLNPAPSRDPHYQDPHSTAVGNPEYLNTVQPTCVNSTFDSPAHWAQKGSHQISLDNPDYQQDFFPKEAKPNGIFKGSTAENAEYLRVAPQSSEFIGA
Give the number; nM is assumed, so skip it.

1. CCC1=C2C(Nc3ccc4c(cnn4Cc4ccccc4)c3)=NC=NC2N=C1NC(=O)OCCn1ccnc1 (stereo not drawn) :: 40
2. CCC1=C2C(Nc3ccc4c(cnn4Cc4ccccc4)c3)=NC=NC2N=C1NC(=O)OCC1CCCCN1 (stereo not drawn) :: 45
3. CCC1=C2C(Nc3ccc4c(cnn4Cc4ccccc4)c3)=NC=NC2N=C1NC(=O)OCC1CCNCC1 (stereo not drawn) :: 30
4. CCC1=C2C(Nc3ccc4c(cnn4Cc4ccccc4)c3)=NC=NC2N=C1NC(=O)O[C@H]1CC[C@@](C)(N)CC1 (stereo partly drawn) :: 19
5. CCC1=C2C(Nc3ccc4c(cnn4Cc4ccccc4)c3)=NC=NC2N=C1NC(=O)OCCC1CCNCC1 (stereo not drawn) :: 44
6. Cc1c(NC(=O)OC[C@@H]2COCCN2)cn2ncnc(Nc3ccc4c(cnn4Cc4cccc(F)c4)c3)c12 :: 32

Identify measured IC50 associated with CCC1=C2C(Nc3ccc4c(cnn4Cc4ccccc4)c3)=NC=NC2N=C1NC(=O)OCCN1CCCCC1 (stereo not drawn)
38

Identify measured IC50 associated with CCC1=C2C(Nc3ccc4c(cnn4Cc4cccc(F)c4)c3)=NC=NC2N=C1NC(=O)OC[C@@H]1COCCN1 (stereo partly drawn)
23

Source: ChEMBL document CHEMBL1154610
